Target: His-tagged KRAS G12D protein (Homo sapiens, UniProt P01116, G12D)
Sequence (P01116 1-188 isoform P01116-2 G12D): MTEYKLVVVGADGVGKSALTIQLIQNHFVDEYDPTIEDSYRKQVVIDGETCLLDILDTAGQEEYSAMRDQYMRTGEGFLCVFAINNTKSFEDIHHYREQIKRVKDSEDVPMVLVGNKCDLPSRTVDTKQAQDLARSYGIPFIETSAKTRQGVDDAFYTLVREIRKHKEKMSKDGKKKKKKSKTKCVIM
Test: biochemical
assay.endpoint: pIC50
Units for pIC50: none; it is -log10 of a concentration expressed in mol/L.

Example entries and their recorded answers appear below.
C[C@@]1(O)CCCN(c2nc(OC[C@@]34CCCN3C[C@H](F)C4)nc3c(F)c(-c4cc(O)cc5cccc(F)c45)ncc23)C1	8.70
CCc1c(F)ccc2cc(O)cc(-c3ncc4c(N5CC6CC(O)C(C6)C5)nc(OC[C@@]56CCCN5C[C@H](F)C6)nc4c3F)c12 (single isomer, unassigned) [Example 23]	7.51

Please list pIC50 recorded for the compound CCC1CCCc2cc(O)cc(-c3ncc4c(N5CCC[C@@](C)(O)C5)nc(OC[C@@]56CCCN5C[C@H](F)C6)nc4c3F)c21 (single isomer, unassigned) [Example 173]
8.40
